Experiment: Pharmacokinetic test, single oral administration to beagle dogs
Assay type: in vivo
Settings: dog, blood, 20 mg/kg, once, 20 mpk, vehicle 0.5% CMC-Na, sampling to 24 hours

{"columns": ["given smiles", "AUC(0-t), µg·h/mL"],
 "data": [
  ["Cn1c(C(=O)N2CC(F)(F)C2)cc2ccc(-c3nccc(Nc4ccc(-c5cn[nH]c5)cc4)n3)cc21", 0.522]
]}
